Catalogue of binders with associated Estimated IC50, n = 2 (HT29 adhesion to TGFβLAP)
Experimental Target: human αVβ6 integrin on cells (human, UniProt P06756 31-1048; P18564 22-788)
Sequence (P06756 31-1048, chain 1 of 2): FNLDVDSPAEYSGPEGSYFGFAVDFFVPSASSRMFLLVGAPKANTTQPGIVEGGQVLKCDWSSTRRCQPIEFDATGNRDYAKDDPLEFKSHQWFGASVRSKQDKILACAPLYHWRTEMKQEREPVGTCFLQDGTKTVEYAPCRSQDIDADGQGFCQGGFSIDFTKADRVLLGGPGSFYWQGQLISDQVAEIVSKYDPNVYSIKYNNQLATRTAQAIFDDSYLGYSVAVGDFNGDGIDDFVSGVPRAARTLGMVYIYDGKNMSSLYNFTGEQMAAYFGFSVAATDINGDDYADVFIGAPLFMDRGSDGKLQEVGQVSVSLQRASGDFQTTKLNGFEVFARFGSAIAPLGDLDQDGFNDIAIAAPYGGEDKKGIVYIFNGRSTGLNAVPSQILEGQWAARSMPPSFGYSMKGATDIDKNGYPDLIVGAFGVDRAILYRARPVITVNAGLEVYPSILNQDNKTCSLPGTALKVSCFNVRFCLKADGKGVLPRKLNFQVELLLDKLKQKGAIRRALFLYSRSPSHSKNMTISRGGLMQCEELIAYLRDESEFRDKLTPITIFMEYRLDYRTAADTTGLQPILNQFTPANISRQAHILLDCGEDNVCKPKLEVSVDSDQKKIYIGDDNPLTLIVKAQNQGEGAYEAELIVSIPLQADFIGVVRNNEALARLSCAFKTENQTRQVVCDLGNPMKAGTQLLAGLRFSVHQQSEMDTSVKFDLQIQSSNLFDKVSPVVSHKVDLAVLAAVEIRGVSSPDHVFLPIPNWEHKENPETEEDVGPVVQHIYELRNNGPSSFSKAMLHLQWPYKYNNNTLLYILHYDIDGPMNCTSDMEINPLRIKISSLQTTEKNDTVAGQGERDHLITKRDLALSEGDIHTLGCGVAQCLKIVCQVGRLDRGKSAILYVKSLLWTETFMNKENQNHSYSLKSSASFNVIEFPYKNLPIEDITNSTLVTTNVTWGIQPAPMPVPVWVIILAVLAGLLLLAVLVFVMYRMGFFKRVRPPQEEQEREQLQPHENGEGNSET
Sequence (P18564 22-788, chain 2 of 2): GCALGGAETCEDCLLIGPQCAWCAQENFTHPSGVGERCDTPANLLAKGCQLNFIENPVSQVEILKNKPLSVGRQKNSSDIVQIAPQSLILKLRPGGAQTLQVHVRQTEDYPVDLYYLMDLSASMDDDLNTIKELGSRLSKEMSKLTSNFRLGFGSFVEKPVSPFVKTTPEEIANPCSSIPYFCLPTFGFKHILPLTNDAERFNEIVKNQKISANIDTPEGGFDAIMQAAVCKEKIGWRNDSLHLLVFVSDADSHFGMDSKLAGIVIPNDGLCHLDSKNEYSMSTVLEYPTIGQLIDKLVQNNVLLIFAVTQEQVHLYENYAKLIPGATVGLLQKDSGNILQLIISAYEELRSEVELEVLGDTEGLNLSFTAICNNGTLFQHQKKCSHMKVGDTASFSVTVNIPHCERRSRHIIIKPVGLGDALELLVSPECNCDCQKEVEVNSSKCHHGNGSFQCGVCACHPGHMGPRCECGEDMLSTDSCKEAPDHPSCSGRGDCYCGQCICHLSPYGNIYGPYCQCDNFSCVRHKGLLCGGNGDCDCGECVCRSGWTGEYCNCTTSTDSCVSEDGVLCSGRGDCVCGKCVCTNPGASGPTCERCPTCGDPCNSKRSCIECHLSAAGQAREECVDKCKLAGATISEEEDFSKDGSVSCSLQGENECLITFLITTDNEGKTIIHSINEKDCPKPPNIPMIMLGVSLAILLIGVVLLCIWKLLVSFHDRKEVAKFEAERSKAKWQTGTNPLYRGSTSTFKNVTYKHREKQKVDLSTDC
Assay Procedure: cell-based or functional assay
Measurement Name: Estimated IC50, n = 2 (HT29 adhesion to TGFβLAP) (µg/mL)

{"Binder": "sc 254 (antibody, V domains shown) VH: QVQLQESGPGLVKPSQTLSLTCTVSGGSISSGGYYWSWIRQHPGKGLEWIGYIYYSGSTYYNPSLKSRVTISVDTSKNQFSLKLSSVTAADTAMYYCARYRGPAAGRGDFYYFGMDVWGQGTTVTVSS VL: DIVMTQTPLSLSVTPGQPASIFCKSSQSLLNSDGKTYLCWYLQKPGQPPQLLIYEVSNRFSGVPDRFSGSGSGTDFTLKISRVEAEDVGVYYCMQGIQLPWAFFGQGTKVEIK", "Reported Result": 0.037}
{"Binder": "sc 188 (antibody, V domains shown) VH: QVQLQESGPGLVKPSQTLSLTCTVSGGSISSGVYYWTWIRQHPGNGLEWIGYIYYSGSTSYNPSLKSRVTISVDTSKKQFSLNLTSVTAADTAVYYCAREGPLRGDYYYGLDVWGQGTTVTVSS VL: EIVLTQSPGTLSLSPGERATLSCRAGQTISSRYLAWYQQKPGQAPRPLIYGASSRATGIPDRFSGSGSGTDFTLTISRLEPEDFAVYYCQQYGSSPRTFGQGTKVEIK", "Reported Result": 0.026}

src = patent US20080057063A1
